Attribution: patent US20240400644A1

# tgt: T1, Siglec10-mIgG2aFc fusion protein (human, UniProt Q96LC7 17-546, limits assumed)
# T1 construct: Bought, HEK293 cell derived; also called human Siglec-10; AcroBiosystems SIO-H525b; not shown: mouse IgG2a Fc of the bought protein
# T1 sequence (looked up): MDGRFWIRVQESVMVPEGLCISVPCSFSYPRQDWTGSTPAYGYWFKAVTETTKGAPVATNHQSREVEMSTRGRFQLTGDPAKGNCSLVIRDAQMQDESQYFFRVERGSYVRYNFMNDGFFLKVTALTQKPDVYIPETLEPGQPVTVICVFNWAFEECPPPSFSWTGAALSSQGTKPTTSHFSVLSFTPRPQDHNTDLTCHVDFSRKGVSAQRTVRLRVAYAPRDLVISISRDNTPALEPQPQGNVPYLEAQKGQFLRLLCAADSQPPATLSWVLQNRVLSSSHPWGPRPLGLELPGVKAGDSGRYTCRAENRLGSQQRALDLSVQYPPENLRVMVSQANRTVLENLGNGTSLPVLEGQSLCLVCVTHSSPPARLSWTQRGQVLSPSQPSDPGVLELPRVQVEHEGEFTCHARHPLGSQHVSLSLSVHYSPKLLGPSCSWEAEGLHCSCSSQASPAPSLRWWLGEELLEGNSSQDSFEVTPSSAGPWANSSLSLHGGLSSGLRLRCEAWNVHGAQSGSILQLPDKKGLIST
# assay explanation: ELISA, Siglec10-mIgG2aFc coated at 0.2 µg/mL, fusion protein titrated
attribute measured: EC50 (nM)

- SETTTGTSSNSSQSTSNSGLAPNPTNATTKAAG (Fc fusion, UniProt P25063 27-59, looked up, not shown: Fc part) [CD24Fc (producing cell not stated)]: 2850
